Procedure Details: Tmax in Sprague-Dawley rat at 10 mg/kg, po measured for 24 hrs
Assay type: ADME, organism-based
Run Conditions: in vivo
Recorded Metric: Tmax (h)

Smiles Structure: COc1cc2c(O[C@H]3CC[C@@H](N)CC3)ncnc2cc1OCc1cccc(Br)c1
Experimental Result: 2

----------
Procedure Details: Oral bioavailability in Sprague-Dawley rat at 10 mg/kg measured for 24 hrs
Type: ADME, organism-based
Run Conditions: in vivo

Smiles Structure: COc1cc2c(O[C@H]3CC[C@@H](N)CC3)ncnc2cc1OCc1cccc(Br)c1
bioavailability [%]: 5.5

----------
Procedure Details: AUC (0 to t) in Sprague-Dawley rat at 1 mg/kg, iv measured for 24 hrs
Format: ADME, organism-based
Run Conditions: in vivo
Recorded Metric: AUC(0-t) at 24 h

Smiles Structure: COc1cc2c(O[C@H]3CC[C@@H](N)CC3)ncnc2cc1OCc1cccc(Br)c1
Experimental Result: 7730 ng·h/mL

Data credit: ChEMBL document CHEMBL6109094
